Source: patent US20260356851A1

# target-or-test-system: pERK1/2 (Thr202/Tyr204), NCI-1H441 (KRAS G12V) (Homo sapiens, UniProt P01116, G12V)
# Construct: pERK1/2 HTRF read-out
# Sequence (P01116 1-188 isoform P01116-2 G12V): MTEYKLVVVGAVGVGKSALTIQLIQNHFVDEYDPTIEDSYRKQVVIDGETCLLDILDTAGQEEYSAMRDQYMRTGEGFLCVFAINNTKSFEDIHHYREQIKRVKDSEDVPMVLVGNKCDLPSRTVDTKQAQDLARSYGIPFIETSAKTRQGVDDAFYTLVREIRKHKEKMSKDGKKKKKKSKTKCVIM
# method-summary: Assay of intracellular pERK1/2 (Thr202/Tyr204) phosphorylation in NCI-H441 cells (KRAS G12V)
# Type: cell-based
# test-context: pERK1/2, 2 days, read-out: NCI-H441 (KRAS G12V) IC50
property-label: IC50 (nM)
One number for each entry, in nM.

Cc1cc(N)cc(-c2nc3c4c(nc(OC[C@H]5CCCN5CCF)nc4c2F)N(C(C)c2cccnc2N)CCO3)c1C(F)(F)F (single isomer, unassigned) [Compound 78] | 3

Value sought for every listed compound: IC50.
1. CC(c1cccnc1N)N1CCOc2nc(-c3cc(O)cc(F)c3C3CC3)c(F)c3nc(OC[C@@H]4CCCN4C)nc1c23 (single isomer, unassigned) [Compound 35]
2. CC(c1cccnc1N)N1CCOc2nc(-c3cc(O)cc(Cl)c3C3CC3)c(F)c3nc(OC[C@@H]4CC(F)(F)CN4C)nc1c23 (single isomer, unassigned) [Compound 56]

Response:
37
5

----------
For each entry below, report its pIC50 value.
# target-or-test-system: pERK1/2 (Thr202/Tyr204), NCI-1H358 (KRAS G12C) (Homo sapiens, UniProt P01116, G12C)
# Construct: pERK1/2 HTRF read-out
# Sequence (P01116 1-188 isoform P01116-2 G12C): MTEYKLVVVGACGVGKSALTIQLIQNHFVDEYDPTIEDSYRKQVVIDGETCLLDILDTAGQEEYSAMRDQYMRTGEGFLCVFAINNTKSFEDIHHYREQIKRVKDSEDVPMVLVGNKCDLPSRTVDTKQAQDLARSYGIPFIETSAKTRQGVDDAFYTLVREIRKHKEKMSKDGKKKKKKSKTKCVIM
# method-summary: Assay of intracellular pERK1/2 (Thr202/Tyr204) phosphorylation in NCI-H358 cells (KRAS G12C)
# Assay type: cell-based
# test-context: pERK1/2, 2 days, read-out: NCI-H358 (KRAS G12C) IC50
Answers are plain numbers, as −log10 of the molar value.

Record pIC50 per entry; entries follow.
1. Cc1cc(N)cc(-c2nc3c4c(nc(N5CCC[C@H]5CO)nc4c2F)N(C(C)c2cccnc2N)CCO3)c1C(F)(F)F (single isomer, unassigned)
2. CC(c1cccnc1N)N1CCOc2nc(-c3cc(O)cc4ccc(F)c(F)c34)c(F)c3nc(OC[C@@H]4COCCN4)nc1c23 (some centres unmarked)

Response:
1. 7.05
2. 6.86

Return reported pIC50 values for all items listed beneath this line.
1. Cc1c(F)c(N)cc(-c2nc3c4c(nc(OC[C@@]56CCCN5C[C@H](F)C6)nc4c2F)N(C(C)c2cccnc2N)C[C@@H](C)O3)c1C(F)(F)F (single isomer, unassigned) [Compound 248]
2. Cc1c(F)c(N)cc(-c2nc3c4c(nc(OC[C@@]56CCCN5C[C@H](F)C6)nc4c2F)N([C@H](C)c2cn(C)nc2N)CCO3)c1C(F)(F)F (single isomer, unassigned)

Response:
[9.40, 7.52]

----------
# target-or-test-system: pERK1/2 (Thr202/Tyr204), NCI-1H441 (KRAS G12V) (Homo sapiens, UniProt P01116, G12V)
# Construct: pERK1/2 HTRF read-out
# method-summary: Assay of intracellular pERK1/2 (Thr202/Tyr204) phosphorylation in NCI-H441 cells (KRAS G12V)
# Assay type: cell-based
# test-context: pERK1/2, 2 days, read-out: NCI-H441 (KRAS G12V) IC50
Would you mind telling me the reported log10 of IC50 of each entry?
Short version: log10 scale, IC50, nM.

Answered examples (8):
CC(c1cccnc1N)N1c2nc(OC[C@@]34CCCN3C[C@H](F)C4)nc3c(F)c(-c4ccc(F)c5sc(N)c(C#N)c45)nc(c23)OC[C@@H]1C (some centres unmarked) [Compound 328] | -0.10
CC(c1cccnc1N)N1CCOc2nc(-c3cc(O)cc4ccc(F)c(F)c34)c(F)c3nc(OC[C@@H]4CCCN4C)nc1c23 (single isomer, unassigned) [Compound 42] | 0.70
Cc1cc2[nH]nc(C)c2c(-c2cc3nc(OC[C@@]45CCCN4C[C@H](F)C5)nc4c3c(n2)OC[C@H](C)N4C(C)c2cccnc2N)c1C(F)(F)F (some centres unmarked) [Compound 385] | 0.30
CC(c1cccnc1N)N1CCOc2nc(-c3cc(N)c(F)c(Cl)c3C(F)(F)F)c(F)c3nc(OCC45CC(F)CN4CC(F)C5)nc1c23 (single isomer, unassigned; diastereomer 1) [Compound 245] | -0.30
Cc1cc(N)cc(-c2nc3c4c(nc(OC[C@@]56CCCN5C/C(=C\F)C6)nc4c2F)N(C(C)c2cccnc2N)CCO3)c1C(F)(F)F (some centres unmarked) [Compound 225] | -0.30
Cc1cc(N)cc(-c2nc3c4c(nc(OC[C@@H]5CCCN5C5COC5)nc4c2F)N(C(C)c2cccnc2N)CCO3)c1C(F)(F)F (some centres unmarked) [Compound 123] | 0.60
CC(c1cccnc1N)N1c2nc(OC[C@@]34CCCN3C[C@H](F)C4)nc3c(F)c(-c4c5cn[nH]c5cc5cccc(F)c45)nc(c23)OC[C@@H]1C (some centres unmarked) [Compound 362] | -0.52
[2H]C1([2H])CN(C(C)c2cccnc2N)c2nc(OC[C@@]34CCCN3C[C@H](F)C4)nc3c(F)c(-c4cc(N)c(F)c(C)c4C(F)(F)F)nc(c23)O1 (some centres unmarked) [Compound 157] | -0.30

Please state, for each entry, its recorded log10 of IC50.
1. C#Cc1c(F)ccc2cc(O)cc(-c3nc4c5c(nc(OC[C@@]67CCCN6C[C@H](F)C7)nc5c3F)N(C(C)c3cccnc3N)CCO4)c12 (some centres unmarked) [Compound 259]
2. [2H]C1([2H])CN(C(C)c2cccnc2N)c2nc(OC[C@@]34CCCN3C[C@H](F)C4)nc3c(F)c(-c4cc(N)c(F)c(C)c4C(F)(F)F)nc(c23)O1 (single isomer, unassigned) [Compound 183]

Response:
1: 0.00; 2: -0.52

----------
# target-or-test-system: pERK1/2 (Thr202/Tyr204), NCI-1H441 (KRAS G12V) (Homo sapiens, UniProt P01116, G12V)
# Construct: pERK1/2 HTRF read-out
# method-summary: Assay of intracellular pERK1/2 (Thr202/Tyr204) phosphorylation in NCI-H441 cells (KRAS G12V)
# Assay type: cell-based
# test-context: pERK1/2, 2 days, read-out: NCI-H441 (KRAS G12V) IC50
# Text: Example 2: Assay of intracellular pERK1/2 (Thr202/Tyr204)phosphorylation 1. […] Fluorescence ratio=fluorescence value665 nm/fluorescence value615 nm Inhibition rate (%)=100−((fluorescence ratio of compound well−fluorescence ratio of negative control well)/(fluorescence ratio of positive control well−fluorescence ratio of negative control well))×100 […]
Task for the reader: assign each of the following compounds its reported pIC50.
One number for each entry, as −log10 of the molar value.

Consider the reported pIC50 for these compounds:
CC(c1cccnc1N)N1c2nc(OC[C@@]34CCCN3C[C@H](F)C4)nc3c(F)c(-c4c5c(cc6[nH]ncc46)CCC5)nc(c23)OC[C@@H]1C (stereo partly drawn) | 9.22
[2H]C([2H])(Oc1nc2c3c(nc(-c4cc(N)cc(C)c4C(F)(F)F)c(F)c3n1)OCCN2C(C)c1cccnc1N)[C@@H]1C[C@@H](F)CN1C([2H])([2H])[2H] (single isomer, unassigned) [Compound 132] | 9.00
CC(c1cccnc1N)N1CCOc2nc(-c3cc(N)cc(Cl)c3C3CC3)c(F)c3nc(OC[C@@]45CCCN4C[C@H](F)C5)nc1c23 (single isomer, unassigned) [Compound 74] | 9.40
CC(c1cccnc1N)N1c2nc(OC[C@@]34CCCN3C[C@H](F)C4)nc3c(F)c(-c4cc(N)cc(Cl)c4C(F)(F)F)nc(c23)OC[C@@H]1C (single isomer, unassigned) [Compound 270] | 9.15
C#Cc1c(F)ccc2cc(O)cc(-c3nc4c5c(nc(OC[C@@]67CCCN6C[C@H](F)C7)nc5c3F)N(C(C)c3cccnc3N)[C@@H](C)CO4)c12 (single isomer, unassigned) [Compound 273] | 9.00

Hey, can you go through the list below and give me pIC50 for every item?
1. C#Cc1c(Cl)cc(N)cc1-c1nc2c3c(nc(OC[C@@H]4CCCN4C)nc3c1F)N(C(C)c1cccnc1N)CCO2 (stereo partly drawn)
2. Cc1c(C(F)(F)F)c(-c2nc3c4c(nc(OCC5(CN(C)C)CC5)nc4c2F)N(C(C)c2cccnc2N)[C@@H](C)CO3)c2cn[nH]c2c1F (stereo partly drawn)
3. CC(c1cccnc1N)N1c2nc(OC[C@@]34CCCN3C[C@H](F)C4)nc3c(F)c(-c4c5c(cc6[nH]ncc46)CCC5(F)F)nc(c23)OC[C@@H]1C (stereo partly drawn)
4. [2H]C([2H])([2H])N1CCC[C@H]1COc1nc2c3c(nc(-c4cc(N)cc(C)c4C(F)(F)F)c(F)c3n1)OCCN2C(C)c1cccnc1N (single isomer, unassigned) [Compound 96]
5. C[C@@H](c1cccnc1N)N1CCOc2nc(-c3c(C(F)(F)F)ccc4[nH]ncc34)c(F)c3nc(OC[C@@H]4CCN4CC(F)F)nc1c23 (single isomer, unassigned)
6. [2H]C1([2H])CC[C@@]2(C([2H])([2H])Oc3nc4c5c(nc(-c6cc(N)c(F)c(C)c6C(F)(F)F)c(F)c5n3)OCCN4C(C)c3cccnc3N)C[C@@H](F)CN12 (stereo partly drawn) [Compound 119]
7. CCC(c1cccnc1N)N1CCOc2nc(-c3cc(N)c(F)c(Cl)c3C(F)(F)F)c(F)c3nc(OC[C@@]45CCCN4C[C@H](F)C5)nc1c23 (single isomer, unassigned) [Compound 215]

Response:
7.00
9.00
8.52
7.24
8.15
9.40
7.44

Please give pIC50 for each item listed below.
1. Cc1c(F)c(N)cc(-c2nc3c4c(nc(OC[C@@H]5C[C@@H](F)CN5C)nc4c2F)N(C(C)c2cccnc2N)[C@@H](C)CO3)c1C(F)(F)F (single isomer, unassigned) [Compound 278]
2. Cc1c(F)c(N)cc(-c2nc3c4c(nc(OC[C@@]56CCCN5C[C@H](F)C6)nc4c2F)N(C(C)c2cccnc2N)CCO3)c1C(F)(F)F (stereo partly drawn) [Compound 120]
3. CC(c1cccnc1N)N1CCOc2nc(-c3cc(N)c(F)c(Cl)c3C(F)(F)F)c(F)c3nc(OC[C@@]45CCCN4C/C(=C\F)C5)nc1c23 (stereo partly drawn)
4. Cc1cc(N)cc(-c2nc3c4c(nc(OC[C@@H]5C[C@@H](F)CN5C)nc4c2F)N(C(C)c2cccnc2N)CCO3)c1C(F)(F)F (stereo partly drawn) [Compound 73]

Response:
9.22
9.40
9.30
8.70
